All figures here come from patent US7250521B2.

- experiment-notes: logP determination by HPLC on reverse-phase column (C 18), EEC directive 79/831 Annex V.A8
- Type: physicochemical
- condition-set: reverse-phase HPLC column (C 18), pH 7.5, neutral range, pH 7.5; 0.01 molar aqueous phosphate buffer/acetonitrile gradient; 43° C.; values marked b)
quantity-name: chromatographic logP
# print the numeric value only

Request: I am curious: what chromatographic logP value has been reported for Cc1cc(Cl)ccc1C1CCC(c2cc(Cl)ccc2Cl)=N1 (stereo not shown) ?
Result: 5.33

Request: And for Fc1ccccc1C1=NC(c2ccc(-c3ccc(OC(F)(F)F)cc3)cc2)CC1 (stereo not shown) ?
Result: 5.45

Request: And for Fc1ccc(C2CCC(c3c(Cl)cccc3Cl)=N2)cc1 (stereo not shown) ?
Result: 3.95

Request: And for Cc1ccc(C2CCC(c3ccccc3Br)=N2)c(C)c1 (stereo not shown) ?
Result: 4.46

Request: And for COc1ccc(C2CCC(c3ccccc3Cl)=N2)cc1 (stereo not shown) ?
Result: 3.47

Request: And for Fc1ccccc1C1=NC(c2ccc(C3CCCCC3)cc2)CC1 (stereo not shown) ?
Result: 5.95

Request: And for Clc1ccc(C2=NC(c3ccccc3)CC2)cc1Cl (stereo not shown) ?
Result: 4.59

Request: And for Fc1ccc(C2CCC(c3ccccc3Br)=N2)cc1F (stereo not shown) ?
Result: 3.89

Request: And for FC(F)(F)Oc1ccc(C2CCC(c3ccccc3Cl)=N2)cc1 (stereo not shown) ?
Result: 4.5

Request: And for CC(C)(C)OC(=O)N1C(=O)C(C(=O)c2ccc(Cl)c(Cl)c2)CC1c1ccccc1 (stereo not shown) ?
Result: 4.6

---

Give chromatographic logP for every item shown.
- experiment-notes: logP determination by HPLC on reverse-phase column (C 18), EEC directive 79/831 Annex V.A8
- Format: physicochemical
- condition-set: reverse-phase HPLC column (C 18), pH 2.3, acidic range, pH 2.3; 0.1% aqueous phosphoric acid/acetonitrile gradient; 43° C.; values marked a)
# print the numeric value only

Request: I am curious: what chromatographic logP value has been reported for CSc1ccc(C2CCC(=O)N2C(=O)OC(C)(C)C)cc1 (stereo not shown) ?
Result: 2.84

Request: And for FC(F)(F)Sc1ccc(-c2ccc(C3CCC(c4ccccc4Cl)=N3)cc2)cc1 (stereo not shown) ?
Result: 4.67

Request: And for Fc1cccc(F)c1C1=NC(c2ccc(OCc3ccc(Cl)cc3)cc2)CC1 (stereo not shown) ?
Result: 3.26

Request: And for Cc1cc(Cl)ccc1C1CCC(=O)N1 (stereo not shown) ?
Result: 1.86

Request: And for Fc1cccc(F)c1C1=NC(c2ccc(SCc3ccc(Cl)cc3)cc2)CC1 (stereo not shown) ?
Result: 2.88

Request: And for Fc1ccc(C2CCC(c3ccccc3Br)=N2)cc1 (stereo not shown) ?
Result: 2.18

Request: And for CC(C)(C)OC(=O)N1C(=O)C(C(=O)c2ccc(Cl)cc2)CC1c1ccc(F)cc1 (stereo not shown) ?
Result: 4.13

Request: And for CC(C)(C)Sc1ccc(C2CCC(=O)N2)cc1 (stereo not shown) ?
Result: 2.69

Request: And for Oc1ccc(C2CCC(c3c(F)cccc3F)=N2)cc1 (stereo not shown) ?
Result: 0.91

Request: And for CC(C)c1ccc(C2CCC(c3ccccc3Cl)=N2)cc1 (stereo not shown) ?
Result: 2.74

---

Give chromatographic logP for every item shown.
- experiment-notes: logP determination by HPLC on reverse-phase column (C 18), EEC directive 79/831 Annex V.A8
- Assay type: physicochemical
- condition-set: reverse-phase HPLC column (C 18), pH 2.3, acidic range, pH 2.3; 0.1% aqueous phosphoric acid/acetonitrile gradient; 43° C.; values marked a)
# print the numeric value only

Request: I am curious: what chromatographic logP value has been reported for Cc1ccccc1C1=NC(c2ccccc2)CC1 (stereo not shown) ?
Result: 1.29

Request: And for Cc1ccccc1C1=NC(c2ccc(C(C)(C)C)cc2)CC1 (stereo not shown) ?
Result: 2.31

Request: And for Fc1ccc(C2CCC(c3ccc(C(F)(F)F)cc3)=N2)cc1 (stereo not shown) ?
Result: 2.73

Request: And for Fc1cccc(F)c1C1=NC(c2ccc(-c3ccc(Br)cc3)cc2)CC1 (stereo not shown) ?
Result: 3.98

Request: And for COc1ccc(C2CCC(=O)N2C(=O)OC(C)(C)C)cc1F (stereo not shown) ?
Result: 2.43

Request: And for CCOc1cc(C(C)(C)C)ccc1C1CCC(c2ccccc2Cl)=N1 (stereo not shown) ?
Result: 3.01

Request: And for O=C1CCC(c2ccccc2)N1 (stereo not shown) ?
Result: 1.21

Request: And for O=C1CCC(c2ccc(Cl)c(Cl)c2)N1 (stereo not shown) ?
Result: 1.92

Request: And for Fc1cc(F)c(C2=NC(c3ccc(-c4ccc(SC(F)(F)F)cc4)cc3)CC2)c(F)c1 (stereo not shown) ?
Result: 5.05

Request: And for O=C1CCC(c2ccc(SC(F)(F)F)cc2)N1 (stereo not shown) ?
Result: 1.59

---

- experiment-notes: logP determination by HPLC on reverse-phase column (C 18), EEC directive 79/831 Annex V.A8
- Assay type: physicochemical
- condition-set: reverse-phase HPLC column (C 18), pH 2.3, acidic range, pH 2.3; 0.1% aqueous phosphoric acid/acetonitrile gradient; 43° C.; values marked a)
Please use true whenever chromatographic logP is not below 3, and false whenever it is.

Request: API: above_or_equal(metric=chromatographic logP, cutoff=3) for item FC(F)(F)Oc1ccc(C2=NC(c3ccccc3)CC2)cc1 (stereo not drawn)
Result: false

Request: And for Fc1ccccc1C1=NC(c2ccc(Br)cc2)CC1 (stereo not drawn) ?
Result: false

Request: And for O=C1CCC(c2ccc(-c3ccc(OCc4ccc(Cl)cc4)cc3)cc2)N1 (stereo not drawn) ?
Result: true

Request: And for CC(C)(C)c1ccc(C2CCC(=O)N2)cc1 (stereo not drawn) ?
Result: false

Request: And for Brc1ccccc1C1=NC(c2ccc(C3CCCCC3)cc2)CC1 (stereo not drawn) ?
Result: true

Request: And for CC(C)(C)OC(=O)N1C(=O)CCC1c1ccc(F)cc1 (stereo not drawn) ?
Result: false

Request: And for Fc1ccc(C2CCC(c3ccc(Cl)cc3)=N2)cc1 (stereo not drawn) ?
Result: false

Request: And for O=C1CCC(c2ccc(F)cc2)N1 (stereo not drawn) ?
Result: false

---

- experiment-notes: logP determination by HPLC on reverse-phase column (C 18), EEC directive 79/831 Annex V.A8
- Assay type: physicochemical
- condition-set: reverse-phase HPLC column (C 18), pH 2.3, acidic range, pH 2.3; 0.1% aqueous phosphoric acid/acetonitrile gradient; 43° C.; values marked a)
Give chromatographic logP for every item shown.
# print the numeric value only

Request: I am curious: what chromatographic logP value has been reported for Clc1ccc(C2CCC(c3ccccc3Br)=N2)cc1 (stereo not drawn) ?
Result: 2.96

Request: And for COc1ccc(C2CCC(c3ccccc3Cl)=N2)cc1F (stereo not drawn) ?
Result: 1.97

Request: And for Fc1ccc(C2CCC(c3cccc(Cl)c3)=N2)cc1 (stereo not drawn) ?
Result: 1.98

---

- experiment-notes: logP determination by HPLC on reverse-phase column (C 18), EEC directive 79/831 Annex V.A8
- Format: physicochemical
- condition-set: reverse-phase HPLC column (C 18), pH 7.5, neutral range, pH 7.5; 0.01 molar aqueous phosphate buffer/acetonitrile gradient; 43° C.; values marked b)
Threshold check on chromatographic logP: strictly below 4 is yes; on or above 4 is no.

Request: Item Fc1ccc(C2CCC(c3ccccc3Cl)=N2)cc1F (stereo not drawn) : chromatographic logP beneath 4, strictly?
Result: yes

Request: And for Fc1ccc(C2CCC(c3ccc(Br)cc3)=N2)cc1 (stereo not drawn) ?
Result: no

Request: And for CC(C)(C)OC(=O)N1C(=O)C(C(=O)c2ccccc2C(F)(F)F)CC1c1ccc(Br)cc1 (stereo not drawn) ?
Result: yes

Request: And for Fc1ccc(C2CCC(c3ccccc3Cl)=N2)cc1 (stereo not drawn) ?
Result: yes

Request: And for Clc1ccccc1C1=NC(c2ccc(CCc3ccccc3)cc2)CC1 (stereo not drawn) ?
Result: no

Request: And for Fc1cccc(F)c1C1=NC(c2ccc(OC(F)(F)F)cc2)CC1 (stereo not drawn) ?
Result: no

Request: And for COc1ccc(C2CCC(c3ccccc3F)=N2)cc1 (stereo not drawn) ?
Result: yes

Request: And for FC(F)(F)Oc1ccc(C2=NC(c3ccccc3)CC2)cc1 (stereo not drawn) ?
Result: no

Request: And for Brc1ccccc1C1=NC(c2ccc(CCc3ccccc3)cc2)CC1 (stereo not drawn) ?
Result: no

Request: And for Fc1ccc(C2CCC(c3ccccc3)=N2)cc1 (stereo not drawn) ?
Result: yes

Request: And for CSc1ccc(C2CCC(c3ccccc3F)=N2)cc1 (stereo not drawn) ?
Result: yes

Request: And for COc1ccc(C2CCC(c3ccccc3Cl)=N2)cc1F (stereo not drawn) ?
Result: yes

Request: And for Cc1ccccc1C1=NC(c2ccc(C(C)C)cc2)CC1 (stereo not drawn) ?
Result: no

Request: And for Clc1ccccc1C1=NC(c2ccccc2)CC1 (stereo not drawn) ?
Result: yes

Request: And for Clc1ccc(C2CCC(c3ccccc3Cl)=N2)c(Cl)c1 (stereo not drawn) ?
Result: no

Request: And for Cc1ccc(C2CCC(c3ccccc3Cl)=N2)c(C)c1 (stereo not drawn) ?
Result: no

Request: And for Fc1ccc(C2CCC(c3ccc(OC(F)(F)F)cc3)=N2)cc1 (stereo not drawn) ?
Result: no

Request: And for CC(C)(C)c1ccc(C2CCC(c3ccccc3Br)=N2)cc1 (stereo not drawn) ?
Result: no

Request: And for CC(=O)c1ccc(C2CCC(c3ccccc3Cl)=N2)cc1 (stereo not drawn) ?
Result: yes

Request: And for Cc1ccccc1C(=O)C1CC(c2ccc(C(C)C)cc2)N(C(=O)OC(C)(C)C)C1=O (stereo not drawn) ?
Result: no

Request: And for Clc1ccc(C2CCC(c3ccccc3Cl)=N2)cc1Cl (stereo not drawn) ?
Result: no

Request: And for COc1ccccc1C1=NC(c2ccc(-c3ccc(OC(F)(F)F)cc3)cc2)CC1 (stereo not drawn) ?
Result: no

Request: And for Fc1ccc(C2CCC(c3cc(Cl)ccc3Cl)=N2)cc1 (stereo not drawn) ?
Result: no

Request: And for Cc1cc(Cl)ccc1C1CCC(c2ccccc2F)=N1 (stereo not drawn) ?
Result: no

Request: And for CCOc1cc(C(C)(C)C)ccc1C1CCC(c2ccccc2Cl)=N1 (stereo not drawn) ?
Result: no

Request: And for Cc1ccc(C2CCC(c3ccccc3Cl)=N2)cc1Cl (stereo not drawn) ?
Result: no

Request: And for FC(F)(F)Oc1ccc(-c2ccc(C3CCC(c4ccc(Br)cc4)=N3)cc2)cc1 (stereo not drawn) ?
Result: no

Request: And for Cc1ccc(C2CCC(c3ccccc3Br)=N2)c(Cl)c1 (stereo not drawn) ?
Result: no

Request: And for Fc1ccc(C2CCC(c3ccc(C(F)(F)F)cc3)=N2)cc1 (stereo not drawn) ?
Result: no

Request: And for Cc1cc(Cl)ccc1C1CCC(c2ccccc2Br)=N1 (stereo not drawn) ?
Result: no

Request: And for Cc1ccc(C2CCC(c3ccccc3Cl)=N2)c(Cl)c1 (stereo not drawn) ?
Result: no
